We begin with a simple list: items and their reported molar heat capacity at constant pressure.
test: molar heat capacity at constant pressure; settings: 349.15 K; 101.33 kPa; Liquid
Test Readout: molar heat capacity at constant pressure (J/K/mol)

> print(dat)
   structure.string  observed
1         CCCCCCCBr    268.47
2      CCCCCCCCCCBr    364.86
3           CCCCCBr    205.89
4      CCCCCCCCCCCl    359.65
5          CCCCCCCl    233.18
6            CCCCCl     171.5
7        CCCCCCCCCl    295.79

---

assay: molar heat capacity at constant pressure; settings: 341.65 K; 101.33 kPa; Liquid
Test Readout: molar heat capacity at constant pressure (J/K/mol)

> print(dat)
                        compound  unit.abbrev  observed
1  CCCCCCCCCCCl [1-chlorodecane]      J/K/mol    356.17
2     CCCCCCCBr [1-bromoheptane]      J/K/mol    265.49
3       CCCCCCBr [1-bromohexane]      J/K/mol    233.77
4         CCCCBr [1-bromobutane]      J/K/mol    172.57
5      CCCCCCl [1-chloropentane]      J/K/mol    200.41

---

assay: molar heat capacity at constant pressure; settings: 286.65 K; 101.33 kPa; Liquid
Test Readout: molar heat capacity at constant pressure (J/K/mol)

> print(dat)
   structure.string  observed
1         CCCCCCCCl    241.75
2          CCCCCCCl    213.23
3            CCCCBr    159.98
4              CCBr    105.91

---

assay: molar heat capacity at constant pressure; conditions: 319.15 K; 101.33 kPa; Liquid
Test Readout: molar heat capacity at constant pressure (J/K/mol)

> print(dat)
   structure.string  observed
1          CCCCCCCl    223.43
2        CCCCCCCCCl    283.79
3          CCCCCCBr     226.2
4           CCCCCBr    196.98

---

In this section we review reported molar heat capacity at constant pressure values for a set of molecules.
assay: molar heat capacity at constant pressure; conditions: 329.15 K; 101.33 kPa; Liquid
Numbers after ± are expanded uncertainties.
Test Readout: molar heat capacity at constant pressure

> print(dat)
   structure.string               observed
1          CCCCCCCl   227.13 ± 1.1 J/K/mol
2       CCCCCCCCCBr   322.16 ± 1.6 J/K/mol
3         CCCCCCCBr   260.68 ± 1.3 J/K/mol
4            CCCCBr  169.45 ± 0.85 J/K/mol
5      CCCCCCCCCCBr   354.02 ± 1.8 J/K/mol

---

assay: molar heat capacity at constant pressure; conditions: 296.65 K; 101.33 kPa; Liquid
Test Readout: molar heat capacity at constant pressure (J/K/mol)

> print(dat)
   structure.string  unit.abbrev  observed
1             CCCBr      J/K/mol     133.2
2              CCBr      J/K/mol    107.09
3           CCCCCBr      J/K/mol    190.94
4        CCCCCCCCCl      J/K/mol    274.53
5         CCCCCCCBr      J/K/mol    248.93
6             CCCCl      J/K/mol    130.95
